The reported measurements were obtained from PubChem BioAssay (NCI).

Tested on: MOLT-4 leukemia
Assay remarks: NCI tumour cell line growth inhibition, 48 h
Endpoint: GI50

The cases that follow already have their GI50 on record.
{"Smiles": "CN1CCN(c2ccc(Nc3nc(N)c(C(=O)c4ccc5c(c4)OCCO5)s3)cc2)CC1", "GI50": "1890 nM"}
{"Smiles": "Cc1nc([C@H]2CC[C@H]3[C@@H]4CCC5=CC(=O)CC[C@]5(C)[C@H]4CC[C@]23C)cs1", "GI50": "2250 nM"}

Continue with the compound presented below.
Please report the recorded GI50 for CS(=O)(=O)Nc1cccc(-c2cc(-c3ccccc3Cl)c(C#N)c(N)n2)c1 .
894 nM

----------
Item-by-item account of TGI
System: SF-268 CNS
Assay remarks: NCI tumour cell line growth inhibition, 48 h
All answers are understood in µM, so give the number only.

{"Molecule": "C/C1=C/C(C)CC(C)OC(=O)C(C)NC(=O)C(Cc2ccc(O)c(I)c2)N(C)C(=O)C(C)NC(=O)C(C)C1 (stereo not given)", "TGI [µM]": 0.347}
{"Molecule": "CN(C)c1ncc(-c2ccc(C(F)(F)F)cc2)c(NC2CCCCCC2)n1", "TGI [µM]": 96.1}
{"Molecule": "Cc1cc(N=Nc2c(O)ccc3ccccc23)ccc1N=Nc1cccc([N+](C)(C)C)c1", "TGI [µM]": 57.1}

For the next question, use this molecule.
Consider the molecule O=C1C=CC2=[N+]([O-])C(c3ccccc3)(c3ccccc3)C(=Nc3ccccc3)C2=C1 and give its measured TGI.
11.4

----------
System: SF-295 CNS
Assay remarks: NCI tumour cell line growth inhibition, 48 h
Below, each of the compounds is paired with its reported TGI value.

Would you please look over these solved cases?
{"Compound": "O=C1CC(=O)NC(=NN2C(=O)/C(=C/c3ccccc3)N=C2c2ccccc2)N1", "TGI": "> 100 µM"}
{"Compound": "CC(=O)O[C@@H]1[C@@H](O)C2=C3[C@]4(C)[C@@H]1C(C)(C)C(=O)C[C@@H]4[C@]3(O)[C@H](OC(C)=O)[C@@]1(C[C@@H]1C)C2=O", "TGI": "42.1 µM"}
{"Compound": "Cc1nc(C(N)=S)sc1C(/C=C/c1ccc(Cl)c(Cl)c1)=N/NC(C)(C)C", "TGI": "> 100 µM"}
{"Compound": "O=C(NNC(c1ccccc1)C(F)(F)F)c1ccncc1 (centres undefined)", "TGI": "> 100 µM"}
{"Compound": "O=C(Nc1c(C(F)(F)F)cc(-c2ccccc2)[nH]c1=O)N1CCOCC1", "TGI": "> 100 µM"}
{"Compound": "C=C1c2[nH]c3ccccc3c2C2C(CC)C1CCN2C (centres undefined)", "TGI": "> 100 µM"}
{"Compound": "COc1ccc(C2Oc3cc(OC)c(O)c(C)c3[C@H]2C)cc1 (some centres undefined)", "TGI": "> 100 µM"}
{"Compound": "O=C(O)/C(Cl)=C(\\Cl)C(=O)NC1C2CC3CC(C2)CC1C3 (centres undefined)", "TGI": "> 100 µM"}

Sample Cc1ccc(C2NC(=O)c3ccccc3N2)s1 (centres undefined) — what was its TGI?
6.87 µM

Given the compound CCN(CC)CCNC(=O)c1ccc(I)cc1 , what is its reported TGI?
> 100 µM

Param item = C/C=C1/CN2CCC3(O)c4ccccc4N4C=C(C(=O)OC)C1CC2C43O (centres undefined) ; retrieve measured TGI.
> 100 µM

I have this compound here, Cc1cc(Nc2c3ccccc3nc3ccccc23)ccc1NS(C)(=O)=O , and I need its recorded TGI.
23.4 µM

So what does the record say about TGI for S=P1(N2CCCCC2)Oc2ccc3ccccc3c2-c2c(ccc3ccccc23)O1 ?
> 100 µM

----------
Test system: CAKI-1 renal
Assay remarks: NCI tumour cell line growth inhibition, 48 h
Property: TGI; scope: individual molecules
Give the quantity in µM, number only.

{"Molecule": "COc1cc(C=C2C(C)=NN(c3cccc(Cl)c3)C23C(Cl)C(=O)N3c2nc3ccccc3s2)ccc1O (centres undefined)", "Test value": 71.5}

Note: attention shifts to another entry.
For CAKI-1 renal, provide TGI of Cc1ccc(N=N/C(=N/NC(=O)c2cc(Cl)ccc2C(=O)c2ccccc2)c2ccc(N(CCC#N)CCC#N)cc2C)cc1 please.
79.3

----------
Property: TGI; scope: individual molecules
System: HT29 colon
Assay remarks: NCI tumour cell line growth inhibition, 48 h

Solved cases below.
{"Molecule": "C[C@]12Cc3cnn(-c4ccc(F)cc4)c3NC1CC[C@@H]1C2CC[C@@]2(C)C1CC[C@@H]2O (stereo partly specified)", "Target entity": "HT29 colon", "TGI": "3.81 µM"}
{"Molecule": "O=C1N2CCc3c([nH]c4ccccc34)C23CC2CCCCC12S3 (stereo unspecified)", "Target entity": "HT29 colon", "TGI": "> 100 µM"}
{"Molecule": "N#CC(C#N)N=Nc1ccc(Br)cc1", "Target entity": "HT29 colon", "TGI": "> 38.5 µM"}
{"Molecule": "COc1ccc(N/N=C(\\CCN(C)C)c2ccccc2)cc1", "Target entity": "HT29 colon", "TGI": "23.6 µM"}
{"Molecule": "S=P1(N2CCCCC2)Oc2ccc3ccccc3c2-c2c(ccc3ccccc23)O1", "Target entity": "HT29 colon", "TGI": "> 100 µM"}

State the recorded TGI for this entry: O=C(Nc1c(C(F)(F)F)cc(-c2ccccc2)[nH]c1=O)N1CCOCC1
> 100 µM

Any idea what its TGI is? The molecule is CN(CCO)c1nc(N)cc(=O)[nH]1
> 100 µM

----------
Tested on: CCRF-CEM leukemia
Assay remarks: NCI tumour cell line growth inhibition, 48 h
Some compounds, each annotated with its measured TGI.

{"Compound": "O=C(O)c1cc2ccccc2c(N=Nc2cc(C(F)(F)F)ccc2Cl)c1O", "TGI": "> 100 µM"}
{"Compound": "Cc1cc(S(=O)(=O)/N=C(\\[N-]S(=O)(=O)c2ccc(Cl)cc2)[n+]2ccc(N(C)C)cc2)c(S)cc1Cl", "TGI": "> 100 µM"}
{"Compound": "O=[N+]([O-])c1ccccc1NC1c2ccccc2Oc2ccccc21", "TGI": "> 100 µM"}

Reported TGI, compound COc1ccc(-c2nc(C(=O)c3ccccc3)n(CC(=O)c3ccccc3)c2-c2ccc(OC)cc2)cc1 : ____
> 100 µM

TGI lookup needed for CCN(CC)CCNC(=O)c1ccc(I)cc1 , thanks.
> 100 µM

I am curious: what TGI value has been reported for CCOP(=O)(C/C=C/Cn1nc(Br)c(=O)[nH]c1=O)OCC ?
> 100 µM

----------
Test system: ACHN renal
Assay remarks: NCI tumour cell line growth inhibition, 48 h; in the data active means GI50 below about 0.43 µM; inactive means the rest
Just give me one of these, please: 1 for active, -1 for inactive

Consider the following illustrative entries.
{"Compound": "O=c1c(O)cccc2cc(O)c(O)c(O)c12", "Group label": -1}
{"Compound": "O=[N+]([O-])c1ccccc1NC1c2ccccc2Oc2ccccc21", "Group label": -1}
{"Compound": "CC(C)CC(=O)Nc1n[nH]c2c1CN(C(=O)C1CCN(C)CC1)C2(C)C", "Group label": -1}

Please let me know the test result on file for O=C(/C=C/C=C/c1c(C2CC2)nc2ccccc2c1-c1ccc(F)cc1)c1cccs1 .
-1

// return assay outcome for CCN(CC)CCCC(C)Nc1nc(C)cc(Nc2ccc3nc(C)cc(N)c3c2)n1 (stereo not drawn)
-1

Test call for this compound, please: CN(C)C/C=C/C(=O)Nc1cc2c(Nc3ccc(F)c(Cl)c3F)ncnc2cc1OCCOC(F)F
1

Please let me know the test result on file for N=C(N)c1ccc(-c2ccc(-c3ccccc3)s2)cc1 .
-1

Assay result, entry CC(=O)[O-].[Mn+3].[O-]c1ccccc1C=NCCN=Cc1ccccc1[O-] — outcome?
-1

----------
System: IGROV1 ovarian
Assay remarks: NCI tumour cell line growth inhibition, 48 h; in the data active = GI50 below about 0.43 µM; inactive = the rest
# output must be one of active, inactive

Solved entries:
{"Molecule": "O=C(Nc1ccccc1O)c1ccc(CNc2ccnc(C(F)(F)F)c2)cc1", "Group label": "inactive"}
{"Molecule": "CN1C(=O)[C@@H](NC(=O)[C@H](CCC(F)(F)F)[C@H](CCC(F)(F)F)C(N)=O)N=C(c2ccccc2)c2ccccc21", "Group label": "inactive"}
{"Molecule": "N#CSc1c[nH]c2ccc(/C=C/C(=O)/C=C(/C=C/c3ccc4[nH]cc(SC#N)c4c3)OB(F)F)cc12", "Group label": "active"}
{"Molecule": "Nc1nc2cc3ccc(C4CC(O)C(CO)O4)cc3cc2c(=O)[nH]1 (stereo not given)", "Group label": "inactive"}
{"Molecule": "CN(C)C/C=C/C(=O)Nc1cc2c(Nc3ccc(F)c(Cl)c3F)ncnc2cc1OCCOC(F)F", "Group label": "active"}
{"Molecule": "COc1ccc(/C=C2\\CC(C)CC3C2=NN(C(C)=O)C3c2ccc(OC)cc2)cc1 (stereo not given)", "Group label": "inactive"}
{"Molecule": "COc1cc2c3c(n(CCCNCCCNCCCNCCCN)c(=O)c2cc1OC)-c1cc2c(cc1C3=O)OCO2", "Group label": "inactive"}
{"Molecule": "COC1C(O)C(C)OC(OC2C(Oc3cccc4c(O)c5c(=O)oc6ccc(C)c7c(=O)oc(c34)c5c67)OC(C)C(O)C2O)C1O (stereo not given)", "Group label": "inactive"}
{"Molecule": "O=[N+]([O-])c1ccccc1NC1c2ccccc2Oc2ccccc21", "Group label": "inactive"}

Answer briefly: the call reported for COC(=O)c1c(O)c([N+](=O)[O-])cc2c1c1c(n2Cc2ccccc2)C(=O)c2ccccc2C1=O in this assay.
inactive
